# Experimental target: recombinant IL4I1 (Homo sapiens, UniProt Q96RQ9)
# Construct: purchased R&D Systems 5684-AO-020
# Method: IL4I1 Enzymatic Assay (Amplex Red/HRP coupled H2O2 detection)
# Assay type: biochemical
# Applied conditions: 240 min; four-hour pre-incubation with compound; 1 nM IL4I1, 1 mM each Phe/Tyr/Trp; ten-point titration; fluorescence readout; read-out: Potency EC50 (nM) (240 min)
Readout name: EC50 (nM)
# value in nM; strip the unit string

{"Compound": "O=c1[nH]c2ccccc2n1Cc1ccc(CN2CCOCS2(=O)=O)cc1", "Experimental target": "recombinant IL4I1 (Homo sapiens, UniProt Q96RQ9)", "Test result": 7}
{"Compound": "O=c1[nH]c2ccccc2n1Cc1ccc(Cn2ccnn2)cc1", "Experimental target": "recombinant IL4I1 (Homo sapiens, UniProt Q96RQ9)", "Test result": 48}
{"Compound": "CNC(=O)Cc1ccc(Cn2c(=O)[nH]c3ccccc32)cc1", "Experimental target": "recombinant IL4I1 (Homo sapiens, UniProt Q96RQ9)", "Test result": 5}
{"Compound": "CNC(=O)c1cc(C)cc(Cn2c(=O)[nH]c3ccccc32)c1", "Experimental target": "recombinant IL4I1 (Homo sapiens, UniProt Q96RQ9)", "Test result": 16}
{"Compound": "O=c1[nH]c2ccccc2n1Cc1ccc2c(c1)CCC2", "Experimental target": "recombinant IL4I1 (Homo sapiens, UniProt Q96RQ9)", "Test result": 0.8}
{"Compound": "O=c1[nH]c2ccccc2n1CCC1CCCCC1", "Experimental target": "recombinant IL4I1 (Homo sapiens, UniProt Q96RQ9)", "Test result": 936}

# EC50 measured on recombinant IL4I1 (Homo sapiens, UniProt Q96RQ9) for item O=C1CCCN1Cc1ccc(Cn2c(=O)[nH]c3ccccc32)c(F)c1 = 11

# EC50 measured on recombinant IL4I1 (Homo sapiens, UniProt Q96RQ9) for item CC(=O)NCc1ccc(Cn2c(=O)[nH]c3ccccc32)c(C)c1 = 9

# EC50 measured on recombinant IL4I1 (Homo sapiens, UniProt Q96RQ9) for item O=C(NC1CC1)c1ccc(Cn2c(=O)[nH]c3ccccc32)s1 = 2

# EC50 measured on recombinant IL4I1 (Homo sapiens, UniProt Q96RQ9) for item Cc1ccc(C2CC2Cn2c(=O)[nH]c3ccccc32)nc1 (single isomer, unassigned) = 4

# EC50 measured on recombinant IL4I1 (Homo sapiens, UniProt Q96RQ9) for item N#Cc1n[nH]c2ccc(Cn3c(=O)[nH]c4ccccc43)cc12 = 2

# EC50 measured on recombinant IL4I1 (Homo sapiens, UniProt Q96RQ9) for item O=c1[nH]c2ccccc2n1Cc1ccc(Cc2nnco2)c(Cl)c1 = 6

# EC50 measured on recombinant IL4I1 (Homo sapiens, UniProt Q96RQ9) for item O=c1[nH]c2ccccc2n1Cc1ccc(Cn2nncc2CO)cc1 (single isomer, unassigned) = 10

---

# Experimental target: recombinant IL4I1 (Homo sapiens, UniProt Q96RQ9)
# Construct: purchased R&D Systems 5684-AO-020
# Method: IL4I1 Enzymatic Assay (Amplex Red/HRP coupled H2O2 detection)
# Format: biochemical
# Applied conditions: 240 min; four-hour pre-incubation with compound; 1 nM IL4I1, 1 mM each Phe/Tyr/Trp; ten-point titration; fluorescence readout; read-out: Potency EC50 (nM) (240 min)
Exam item: assign yes to entries whose EC50 is below 70 nM and no to entries at or above 70 nM. Note that a value of exactly 70 nM receives no.

Known results for compounds:
{"Compound": "O=c1n(Cc2ccccc2)c2ccccc2n1C(F)F [Example 78]", "Label value": "no"}
{"Compound": "N#Cc1cc(Cn2c(=O)[nH]c3ccccc32)ccc1CN1CCCC1=O [Example 24]", "Label value": "yes"}
{"Compound": "CC(=O)NC1CCc2ccc(Cn3c(=O)[nH]c4ccccc43)cc21 (single isomer, unassigned) [Example 45]", "Label value": "yes"}

IN: # TODO verify EC50 < 70 nM strictly for this compound: O=c1[nH]c2ccccc2n1CCCCc1cccc2cccnc12 [Example 114]
OUT: no

IN: # TODO verify EC50 < 70 nM strictly for this compound: O=C1CCCN1Cc1ccc(Cn2c(=O)[nH]c3ccccc32)cc1Cl [Example 18]
OUT: yes

IN: # TODO verify EC50 < 70 nM strictly for this compound: CC(C)C1CC(Cn2c(=O)[nH]c3ccccc32)C1 (stereo not drawn) [Example 57]
OUT: no

IN: # TODO verify EC50 < 70 nM strictly for this compound: COc1ccccc1Cn1c(=O)[nH]c2ccc(C)cc21 [Example 86]
OUT: no

IN: # TODO verify EC50 < 70 nM strictly for this compound: CC(=O)NCc1ccc(Cn2c(=O)[nH]c3ccccc32)cc1C [Example 49]
OUT: yes

IN: # TODO verify EC50 < 70 nM strictly for this compound: CS(=O)(=O)NCc1sc(Cn2c(=O)[nH]c3ccccc32)cc1Cl [Example 39]
OUT: yes

---

# Experimental target: recombinant IL4I1 (Homo sapiens, UniProt Q96RQ9)
# Construct: purchased R&D Systems 5684-AO-020
# Method: IL4I1 Enzymatic Assay (Amplex Red/HRP coupled H2O2 detection)
# Assay type: biochemical
# Applied conditions: 240 min; four-hour pre-incubation with compound; 1 nM IL4I1, 1 mM each Phe/Tyr/Trp; ten-point titration; fluorescence readout; read-out: Potency EC50 (nM) (240 min)
# Excerpt: Interleukin 4 inducible protein 1 (IL4I1) is an L-amino oxidase that catalyzes the oxidation of aromatic residues (Phe, Trp and Tyr): L-amino acid+H2O+O2→2-oxo acid+NH3+H2O2. […] In this assay, the hydrogen peroxide generated by IL4I1 is then detected through a coupled reaction with Amplex Red (10-acetyl-3,7-dihydroxyphenoxazine) and […] (HRP) to produce Resorufin product that could be detected in the form of fluorescence signals. […]
Readout name: log10 EC50 (log10 of the value in nM)
Parameter value (number): base-10 log of EC50 in nM.

# annotated cases, reported log10 EC50 shown
{"Molecule": "O=c1[nH]c2ccccc2n1Cc1cc(C(F)F)cc(C(F)F)c1", "Experimental target": "recombinant IL4I1 (Homo sapiens, UniProt Q96RQ9)", "log10 EC50": 0.95}
{"Molecule": "O=c1[nH]c2ccccc2n1CCCOc1cccc2cccnc12", "Experimental target": "recombinant IL4I1 (Homo sapiens, UniProt Q96RQ9)", "log10 EC50": 1.65}
{"Molecule": "CS(=O)(=O)NC[C@H]1CC[C@H](Cn2c(=O)[nH]c3ccccc32)CC1", "Experimental target": "recombinant IL4I1 (Homo sapiens, UniProt Q96RQ9)", "log10 EC50": 3.20}
{"Molecule": "CN(Cc1ccc(Cn2c(=O)[nH]c3ccccc32)cc1)S(=O)(=O)C1CC1", "Experimental target": "recombinant IL4I1 (Homo sapiens, UniProt Q96RQ9)", "log10 EC50": 1.20}
{"Molecule": "O=c1[nH]c2ccccc2n1CC1CCN(c2ccccn2)CC1", "Experimental target": "recombinant IL4I1 (Homo sapiens, UniProt Q96RQ9)", "log10 EC50": 3.11}

# molecule CS(=O)(=O)NCc1ccc(Cn2c(=O)n(C(F)F)c3ccccc32)cc1 ; its log10 EC50 = 0.78

# molecule CC(=O)NCc1ccc(Cn2c(=O)[nH]c3ccccc32)cc1 ; its log10 EC50 = 0.78

---

# Experimental target: recombinant IL4I1 (Homo sapiens, UniProt Q96RQ9)
# Construct: purchased R&D Systems 5684-AO-020
# Sequence (Q96RQ9 22-567): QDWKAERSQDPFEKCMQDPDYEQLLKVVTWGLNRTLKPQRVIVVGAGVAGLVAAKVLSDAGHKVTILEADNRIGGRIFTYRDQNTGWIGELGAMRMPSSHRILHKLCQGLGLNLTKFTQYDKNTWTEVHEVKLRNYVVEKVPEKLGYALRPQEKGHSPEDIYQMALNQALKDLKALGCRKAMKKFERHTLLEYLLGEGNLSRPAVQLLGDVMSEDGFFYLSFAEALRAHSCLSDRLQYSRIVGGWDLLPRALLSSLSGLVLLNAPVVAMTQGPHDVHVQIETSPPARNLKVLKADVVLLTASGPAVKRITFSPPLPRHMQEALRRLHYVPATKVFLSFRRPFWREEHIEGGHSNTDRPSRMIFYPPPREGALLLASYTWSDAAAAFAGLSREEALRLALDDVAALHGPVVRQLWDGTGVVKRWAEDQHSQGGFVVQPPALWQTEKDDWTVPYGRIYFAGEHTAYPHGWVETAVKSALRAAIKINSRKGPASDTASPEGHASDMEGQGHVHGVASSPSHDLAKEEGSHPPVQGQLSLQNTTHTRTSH
# Method: IL4I1 Enzymatic Assay (Amplex Red/HRP coupled H2O2 detection)
# Type: biochemical
# Applied conditions: 240 min; four-hour pre-incubation with compound; 1 nM IL4I1, 1 mM each Phe/Tyr/Trp; ten-point titration; fluorescence readout; read-out: Potency EC50 (nM) (240 min)
# Text: Interleukin 4 inducible protein 1 (IL4I1) is an L-amino oxidase that catalyzes the oxidation of aromatic residues (Phe, Trp and Tyr): L-amino acid+H2O+O2→2-oxo acid+NH3+H2O2. […] In this assay, the hydrogen peroxide generated by IL4I1 is then detected through a coupled reaction with Amplex Red (10-acetyl-3,7-dihydroxyphenoxazine) and […] (HRP) to produce Resorufin product that could be detected in the form of fluorescence signals. […]
Readout name: EC50
Put down the number, then write its unit next to it.

# annotated cases, reported EC50 shown
{"Molecule": "O=C1C=CCN1Cc1ccc(Cn2c(=O)[nH]c3ccccc32)cc1 [Example 2]", "EC50": "13 nM"}
{"Molecule": "O=C1N(Cc2ccc(Cn3c(=O)[nH]c4ccccc43)cc2)CCC1(F)F [Example 43]", "EC50": "10 nM"}
{"Molecule": "CC(=O)NCc1ccc(Cn2c(=O)[nH]c3ccc(Cl)cc32)cc1 [Example 64]", "EC50": "56 nM"}
{"Molecule": "CN1CCN(c2cccc(Cn3c(=O)[nH]c4ccccc43)c2)CC1 [Example 80]", "EC50": "27 nM"}
{"Molecule": "COc1ccccc1Cn1c(=O)[nH]c2cccc(C)c21 [Example 91]", "EC50": "1340 nM"}
{"Molecule": "O=c1[nH]c2cc(Cl)ccc2n1Cc1ccc(Cc2nnco2)cc1 [Example 100]", "EC50": "784 nM"}
{"Molecule": "O=c1[nH]c2ccsc2n1Cc1ccccc1 [Example 113]", "EC50": "2850 nM"}
{"Molecule": "CNC(=O)C1CCc2cc(Cn3c(=O)[nH]c4ccccc43)ccc21 (single isomer, unassigned) [Example 46]", "EC50": "9 nM"}

# molecule O=c1[nH]c2ccccc2n1Cc1cnc2c(c1)CCC2 [Example 34] ; its EC50 = 153 nM

# molecule CS(=O)(=O)NCc1ccc(Cn2c(=O)[nH]c3ccccc32)s1 [Example 6] ; its EC50 = 6 nM
